# Lookup of reported Dose.FC.LYZ.S keyed by entry
# Test system: ENR+CD organoids (ISC to Paneth cell differentiation)
# test.method.notes: Primary screen: CCh-stimulated lysozyme secretion LYZ.S, 2.5-D 384-well ENR+CD organoid differentiation
# Format: cell-based, mouse
# condition.context: primary screen, dose 0.08 uM, FC relative to plate median
Provide only the numeric value, understood in log2 fold change.

Some entries whose results are on file:
- molecule: "O=C(NC(Cc1cc(=O)[nH]c2ccccc12)C(=O)O)c1ccc(Cl)cc1 (stereo not shown) [Rebamipide]"
  target.entity: "ENR+CD organoids (ISC to Paneth cell differentiation)"
  Dose.FC.LYZ.S (log2 fold change): "−0.014"
- molecule: "O=[N+]([O-])c1ccc2c(c1)S(=O)(=O)C=C2"
  target.entity: "ENR+CD organoids (ISC to Paneth cell differentiation)"
  Dose.FC.LYZ.S (log2 fold change): 0.150
- molecule: "CC(C)N(CCCNC(=O)Nc1ccc(C(C)(C)C)cc1)C[C@H]1O[C@@H](n2cc(Br)c3c(N)ncnc32)[C@H](O)[C@@H]1O"
  target.entity: "ENR+CD organoids (ISC to Paneth cell differentiation)"
  Dose.FC.LYZ.S (log2 fold change): 0.145

As a next step, examine the molecule that follows.
// query Endpoint output: Dose.FC.LYZ.S of CN1CC(=O)N2[C@H](c3ccc4c(c3)OCO4)c3[nH]c4ccccc4c3C[C@@H]2C1=O . Value?
// result 0.091

----------
# System: ENR+CD organoids
# test.method.notes: Primary screen: ATP (CellTiter-Glo 3D, CTG) cell number/viability, 2.5-D 384-well ENR+CD organoids
# condition.context: primary screen, dose 0.40 uM
experimental.endpoint: Dose.FC.CTG (log2 fold change)
Form entry: value (log2 fold change) — number only.

- molecule: "C[C@@H]1CCN(C(=O)CC#N)C[C@@H]1N(C)c1ncnc2[nH]ccc12 [Tofacitinib (CP-690550, Tasocitinib)]"
  readout.value: 0.249

// query Need Dose.FC.CTG, item CCCCCCCCc1ccc(CCC(N)(CO)CO)cc1.Cl [Fingolimod (FTY720) HCl]
// result 0.103

// query // next record CCO.N#CC(=C(/N)Sc1ccccc1N)/C(C#N)=C(\N)Sc1ccccc1N [U0126-EtOH]
// result −0.514

// query Same question, COc1ccc([C@]2(C#N)CC[C@@H](C(=O)O)CC2)cc1OC1CCCC1 [Cilomilast] this time
// result −0.338

// query Follow-up item: CCOc1ccccc1-n1c(C(C)N2CCN(C(=O)COc3ccc(Cl)cc3)CC2)nc2ccccc2c1=O (stereo not drawn) [Erastin]
// result 0.285

// query Now this one: Nc1ncnc2n[nH]c(Nc3ccc(F)cc3)c12 [CGP57380]
// result −0.293

// query Now this one: C=CC(=O)Nc1cccc(Oc2nc(Nc3ccc(N4CCN(C)CC4)cc3OC)ncc2Cl)c1 [WZ4002]
// result 0.082

// query And what about the molecule Oc1nc(-c2ccc(C(F)(F)F)cc2)nc2c1CSCC2 [XAV-939] ?
// result −0.027

// query Next up: CN1CCc2cc3c(cc2[C@H]1[C@@H]1OC(=O)c2c1ccc1c2OCO1)OCO3 [(+)-Bicuculline]
// result −0.029

// query Item: CCOC(=O)c1cncn1[C@H](C)c1ccccc1 [Etomidate]
// result 0.006

// query Param item: CCCCNc1ncc(-c2ccc(CN3CCOCC3)cn2)c(NC2CCC(O)CC2)n1 (stereo not drawn) [UNC2250]
// result 0.279

----------
Each entry below lists one item and its recorded Dose.FC.LYZ.NS value.
# Tested on: ENR+CD organoids (ISC to Paneth cell differentiation)
# test.method.notes: Primary screen: basal (non-stimulated) lysozyme secretion LYZ.NS, 2.5-D 384-well ENR+CD organoid differentiation
# Type: cell-based, mouse
# condition.context: primary screen, dose 0.08 uM
Counter-ions that a name gives are not always drawn.
Respond with the bare value in log2 fold change.

Guide cases for Dose.FC.LYZ.NS, answers given:
- compound: "CN(C)CCOc1ccc(/C(=C(/CCCl)c2ccccc2)c2ccccc2)cc1 [Toremifene Citrate]"
  target.entity: "ENR+CD organoids (ISC to Paneth cell differentiation)"
  reading.unit: "log2 fold change"
  readout.value: 0.051
- compound: "CC1=C(C(=O)OC2CCCCC2)C(c2ccc([N+](=O)[O-])cc2)C2=C(CC(C)(C)CC2=O)N1 (stereo not drawn) [FLI-06]"
  target.entity: "ENR+CD organoids (ISC to Paneth cell differentiation)"
  reading.unit: "log2 fold change"
  readout.value: 0.050

Next:
// query # query: Dose.FC.LYZ.NS | item C=C1C[C@@H]2[C@H](CC[C@]3(C)C(=O)CC[C@@H]23)[C@@]2(C)C=CC(=O)C=C12 [Exemestane] | system: ENR+CD organoids (ISC to Paneth cell differentiation)
// result 0.051

----------
# Test system: ENR+CD organoids
# test.method.notes: Primary screen: ATP (CellTiter-Glo 3D, CTG) cell number/viability, 2.5-D 384-well ENR+CD organoids;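 further: compounds given at plating and again on day 3 over a 6-day differentiation from ENR+CV stem-cell-enriched precursors, ATP measured on day 6, plate median as control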
# condition.context: primary screen, dose 2.00 uM
experimental.endpoint: Z.CTG (standard z score)

Example entries begin here.
- compound: "C=CCNC1=C2C[C@@H](C)C[C@H](OC)[C@H](O)[C@@H](C)/C=C(\\C)[C@H](OC(N)=O)[C@@H](OC)/C=C\\C=C(/C)C(=O)NC(=CC1=O)C2=O [17-AAG (Tanespimycin)]"
  readout.value: "−3.486"
- compound: "Cn1cc(/C=C2\\C(=O)Nc3cccnc32)c2ccccc21 [GW441756]"
  readout.value: 0.364
- compound: "COc1ccc2c(c1)c(C1=C(c3c[nH]c4ccccc34)C(=O)NC1=O)cn2CCCN(C)C [Go 6983]"
  readout.value: 0.138
- compound: "C=CC(=O)Nc1cccc(Oc2nc(Nc3ccc(N4CCN(C)CC4)cc3OC)ncc2Cl)c1 [WZ4002]"
  readout.value: 0.360
- compound: "O=C(O)C(Cc1ccccc1[N+](=O)[O-])=NNc1nc(-c2ccc(Cl)c(Cl)c2)cs1 (mixture of isomers) [4EGI-1]"
  readout.value: 0.304

As a next step, examine the compound that follows.
// query Using the record for CC1(C)CCC(c2ccc(Cl)cc2)=C(CN2CCN(c3ccc(C(=O)NS(=O)(=O)c4ccc(N[C@H](CCN5CCOCC5)CSc5ccccc5)c(S(=O)(=O)C(F)(F)F)c4)cc3)CC2)C1 [ABT-263 (Navitoclax)] , report its Z.CTG (standard z score).
// result −0.878

----------
# Test system: ENR+CD organoids (ISC to Paneth cell differentiation)
# test.method.notes: Primary screen: basal (non-stimulated) lysozyme secretion LYZ.NS, 2.5-D 384-well ENR+CD organoid differentiation
# Type: cell-based, mouse
# condition.context: primary screen, dose 2.00 uM
# From the text: High-throughput screening.
experimental.endpoint: Dose.FC.LYZ.NS (log2 fold change)
I only need the number, thanks.

Example results:
- compound: "COc1cc(-c2ncn(/C=C\\C(=O)OC(C)C)n2)cc(C(F)(F)F)c1"
  Dose.FC.LYZ.NS (log2 fold change): "−0.209"
- compound: "C[C@@H]1CN(CC(=O)Nc2ccc3c(c2)Cc2cccc(-c4cc(=O)cc(N5CCOCC5)o4)c2S3)C[C@H](C)O1"
  Dose.FC.LYZ.NS (log2 fold change): "−0.015"

// query Quick one: Dose.FC.LYZ.NS (log2 fold change) for COC(=O)CCSCc1ccc(-c2onc(C)c2NC(=O)OC(C)c2ccccc2Cl)cc1 (stereo not drawn) ?
// result 0.060

----------
# Tested on: ENR+CD organoids (ISC to Paneth cell differentiation)
# test.method.notes: Primary screen: CCh-stimulated lysozyme secretion LYZ.S, 2.5-D 384-well ENR+CD organoid differentiation
# Type: cell-based, mouse
# condition.context: primary screen, dose 10.00 uM
experimental.endpoint: Dose.FC.LYZ.S (log2 fold change)
Reply with the value as a number alone.

Example entries begin here.
- compound: "CCOC(=O)N1CCC(=C2c3ccc(Cl)cc3CCc3cccnc32)CC1 [Loratadine]"
  readout.value: "−0.148"
- compound: "Cc1cccc(CC(=O)N2CCc3c2ccc(-c2cn(C)c4ncnc(N)c24)c3F)n1 [GSK2656157]"
  readout.value: 0.090
- compound: "O=C(/C=C\\n1cnc(-c2cc(C(F)(F)F)cc(C(F)(F)F)c2)n1)NNc1cnccn1 [KPT-330]"
  readout.value: "−0.423"
- compound: "CCc1cc(Nc2nccc(-c3c(-c4ccc(OC)c(C(=O)Nc5c(F)cccc5F)c4)nc4ccccn34)n2)c(OC)cc1N1CCC(N2CCN(S(C)(=O)=O)CC2)CC1 [GSK1904529A]"
  readout.value: "−0.276"

// query Data request, read-out Dose.FC.LYZ.S (log2 fold change), for CCc1c2c(nc3ccc(OC(=O)N4CCC(N5CCCCC5)CC4)cc13)-c1cc3c(c(=O)n1C2)COC(=O)[C@]3(O)CC [Irinotecan]
// result −0.251
